- protocol.summary: Cytotoxicity against fertilized white leghorn chicken embryos in CAM model assessed as lethality at 2.5 nmol after 24 hrs relative to control
- Type: organism-based, Gallus gallus
- protocol.conditions: in vivo
readout.label: mortality at 24 h

- COc1cc(-c2ncn(C)c2-c2ccc3c(c2)c(Cl)cn3C)cc(OC)c1OC: 67%

* * *

- protocol.summary: Growth inhibition of human MCF7/Topo cells after 72 hrs by MTT assay
- Type: functional, cell-based
pIC50: −log10 of the molar value.
readout.label: pIC50

• COc1ccc(/C=C\c2cc(OC)c(OC)c(OC)c2)cc1O [COMBRETASTATIN A4] = 6.81

* * *

- protocol.summary: Growth inhibition of human HCT116 cells expressing wild type p53 after 72 hrs by MTT assay
- Assay type: functional, cell-based
- protocol.conditions: HCT-116, 72 h
readout.label: IC50 (nM)

* COc1ccc(/C=C\c2cc(OC)c(OC)c(OC)c2)cc1O | 2.6
* COc1cc(-c2ncn(C)c2-c2ccc3c(c2)c(Cl)cn3C)cc(OC)c1OC | 9.5
* COc1cc(-c2ncn(C)c2-c2ccc3c(c2)c(Cl)cn3C)cc(Br)c1OC.Cl | 27.4
